Kindly state MIC, P. aeruginosa for each of the entries shown.
system: multi-drug resistant P. aeruginosa ATCC 27853; details: ATCC 27853

Asked: Quick check: MIC, P. aeruginosa of CCCCCCCCCCCCCCCC(=O)N[C@@H](C)CN(CC(=O)N[C@@H](CCCCN)CN(CC(=O)N[C@@H](Cc1ccccc1)CN(CC(=O)N[C@@H](Cc1ccccc1)CN(CC(N)=O)C(=O)CCc1c[nH]cn1)C(=O)CCc1c[nH]cn1)C(=O)CCCN)C(C)=O [γAA3] ?
Given back: 3 to 6 µg/mL

Asked: # input compound: CCCCCCCCCCCCCCCC(=O)N[C@@H](C)CN(CC(=O)N[C@@H](C)CN(CC(=O)N[C@@H](CC(C)C)CN(CC(=O)N[C@@H](CC(C)C)CN(CC(=O)N[C@@H](CC(C)C)CN(CC(N)=O)C(=O)CCCN)C(=O)CCCN)C(=O)CCCN)C(C)=O)C(C)=O [γAA2] ; wanted: its MIC, P. aeruginosa
Given back: 25 to 50 µg/mL

Asked: # MIC, P. aeruginosa lookup, item CC(C)C[C@@H](CN(CC(=O)N[C@@H](CCCCN)CN(CC(N)=O)C(=O)CCc1ccccc1)C(=O)CCc1ccccc1)NC(=O)CN(C[C@H](CCCCN)NC(=O)CN(C[C@H](CCCCN)NC(=O)CN(C[C@H](CC(C)C)NC(=O)CN(C[C@H](CCCCN)NC(=O)CN(C[C@@H](N)CCCCN)C(=O)CCc1ccccc1)C(=O)CCc1ccccc1)C(=O)CCc1ccccc1)C(=O)CCc1ccccc1)C(=O)CCc1ccccc1 [γ5]
Given back: 25 to 50 µg/mL

// provenance: patent US10308686B2
